# measurementTarget: Angiotensin II receptor (AT-1) type-1 (Rattus norvegicus, UniProt P29089+P25095)
# testDescription: In vitro displacement of [125I]angiotensin II from rat liver (Angiotensin 1 receptor) membrane preparation
# IC50 listing for each entry below
readoutType: IC50

{"structureString": "CCCc1nc(SC(F)F)c(C(=O)O)n1Cc1ccc(-c2ccccc2S(=O)(=O)NC(=O)CC2CCCCC2)cc1", "resultValue": "0.07 nM"}
{"structureString": "CCCCc1nc(SC(F)F)c(C(=O)O)n1Cc1ccc(-c2ccccc2S(=O)(=O)NC(=O)Cc2ccccc2)cc1", "resultValue": "0.15 nM"}
{"structureString": "CCCCc1nc(SC)c(C(=O)O)n1Cc1ccc(-c2ccccc2S(=O)(=O)NC(=O)NCCC)cc1", "resultValue": "0.5 nM"}
{"structureString": "CCCCc1nc(SC)c(C(=O)O)n1Cc1ccc(-c2ccccc2S(=O)(=O)NC(=O)NC)cc1", "resultValue": "1.9 nM"}
{"structureString": "CCCc1nc(SC(F)F)c(C(=O)O)n1Cc1ccc(-c2ccccc2S(=O)(=O)NC(=O)Cc2ccccc2Cl)cc1", "resultValue": "0.3 nM"}
{"structureString": "CCCc1nc(SC(F)F)c(C(=O)O)n1Cc1ccc(-c2ccccc2S(=O)(=O)NC(=O)Cc2ccc3ccccc3c2)cc1", "resultValue": "0.1 nM"}
{"structureString": "CCCCc1nc(SC)c(C(=O)O)n1Cc1ccc(-c2ccccc2S(=O)(=O)NC(=O)NCC2CCCCC2)cc1", "resultValue": "0.1 nM"}
{"structureString": "CCCc1nc(SC(F)F)c(C(=O)O)n1Cc1ccc(-c2ccccc2S(=O)(=O)NC(=O)CCCc2ccccc2)cc1", "resultValue": "0.7 nM"}

###

# measurementTarget: Angiotensin II receptor (Rattus norvegicus) (UniProt P29089+P25095+P35351)
# testDescription: In vivo inhibition of pressor response induced by Angiotensin II (AII) following oral administration to pithed rats
# Assay type: functional, organism-based

{"structureString": "CCCc1nc(SC(F)F)c(C(=O)O)n1Cc1ccc(-c2ccccc2S(=O)(=O)NC(=O)Cc2ccccc2)cc1", "endpointUnit": "mg/kg", "boundType": "=", "ID50": 2}
{"structureString": "CCCCc1nc(SC(F)F)c(C(=O)O)n1Cc1ccc(-c2ccccc2S(=O)(=O)NC(=O)CCC)cc1", "endpointUnit": "mg/kg", "boundType": "=", "ID50": 0.8}
{"structureString": "CCCCc1nc(SC(F)F)c(C(=O)O)n1Cc1ccc(-c2ccccc2S(=O)(=O)NC(=O)Cc2ccccc2)cc1", "endpointUnit": "mg/kg", "boundType": "=", "ID50": 2.2}
{"structureString": "CCCc1nc(SC(F)F)c(C(=O)O)n1Cc1ccc(-c2ccccc2S(=O)(=O)NC(=O)Cc2ccc3c(c2)OCO3)cc1", "endpointUnit": "mg/kg", "boundType": "=", "ID50": 10}
{"structureString": "CCCc1nc(SC(F)F)c(C(=O)O)n1Cc1ccc(-c2ccccc2S(=O)(=O)NC(=O)CCc2cccs2)cc1", "endpointUnit": "mg/kg", "boundType": "=", "ID50": 3.1}
{"structureString": "CCc1nc(SC)c(C(=O)O)n1Cc1ccc(-c2ccccc2S(=O)(=O)NC(=O)NCC2CCCCC2)cc1", "endpointUnit": "mg/kg", "boundType": ">", "ID50": 10}
{"structureString": "CCCCc1nc(SC)c(C(=O)O)n1Cc1ccc(-c2ccccc2S(=O)(=O)NC(=O)NC)cc1", "endpointUnit": "mg/kg", "boundType": "=", "ID50": 4.9}
{"structureString": "CCCCc1nc(SC)c(C(=O)O)n1Cc1ccc(-c2ccccc2S(=O)(=O)NC(=O)NCCC)cc1", "endpointUnit": "mg/kg", "boundType": "=", "ID50": 0.7}
{"structureString": "CCCc1nc(SC)c(C(=O)O)n1Cc1ccc(-c2ccccc2S(=O)(=O)NC(=O)NCC2CCCCC2)cc1", "endpointUnit": "mg/kg", "boundType": "=", "ID50": 1.5}
{"structureString": "CCCCc1nc(SC)c(C(=O)O)n1Cc1ccc(-c2ccccc2S(=O)(=O)NC(=O)NCC)cc1", "endpointUnit": "mg/kg", "boundType": "=", "ID50": 1.1}
{"structureString": "CCCCNC(=O)NS(=O)(=O)c1ccccc1-c1ccc(Cn2c(CCCC)nc(SC)c2C(=O)O)cc1", "endpointUnit": "mg/kg", "boundType": "=", "ID50": 0.2}
{"structureString": "CCCc1nc(SC)c(C(=O)O)n1Cc1ccc(-c2ccccc2S(=O)(=O)NC(=O)NCC2CCCC2)cc1", "endpointUnit": "mg/kg", "boundType": "=", "ID50": 1}
{"structureString": "CCCc1nc(SC(F)F)c(C(=O)O)n1Cc1ccc(-c2ccccc2S(=O)(=O)NC(=O)CC2CCCCC2)cc1", "endpointUnit": "mg/kg", "boundType": "=", "ID50": 1.1}
{"structureString": "CCCc1nc(SC(F)F)c(C(=O)O)n1Cc1ccc(-c2ccccc2S(=O)(=O)NC(=O)Cc2cccs2)cc1", "endpointUnit": "mg/kg", "boundType": "=", "ID50": 3}
{"structureString": "CCCc1nc(SC)c(C(=O)O)n1Cc1ccc(-c2ccccc2S(=O)(=O)NC(=O)NCc2ccccc2)cc1", "endpointUnit": "mg/kg", "boundType": "=", "ID50": 1.4}
{"structureString": "CCCc1nc(SC)c(C(=O)O)n1Cc1ccc(-c2ccccc2S(=O)(=O)NC(=O)NCc2cccs2)cc1", "endpointUnit": "mg/kg", "boundType": "=", "ID50": 1}
{"structureString": "CCCCc1nc(SC(F)F)c(C(=O)O)n1Cc1ccc(-c2ccccc2S(=O)(=O)NC(=O)CC2CCCCC2)cc1", "endpointUnit": "mg/kg", "boundType": "=", "ID50": 1.7}

###

# measurementTarget: Angiotensin II receptor (AT-1) type-1 (Rattus norvegicus, UniProt P29089+P25095)
# testDescription: In vitro displacement of [125I]angiotensin II from rat liver (Angiotensin 1 receptor) membrane preparation
Each entry below lists one item and its recorded IC50 value.

{"structureString": "CCCc1nc(SC(F)F)c(C(=O)O)n1Cc1ccc(-c2ccccc2S(=O)(=O)NC(=O)CCc2cccs2)cc1", "measurementTarget": "Angiotensin II receptor (AT-1) type-1 (Rattus norvegicus, UniProt P29089+P25095)", "endpointUnit": "nM", "IC50": 0.03}
{"structureString": "CCCc1nc(SC(F)F)c(C(=O)O)n1Cc1ccc(-c2ccccc2S(=O)(=O)NC(=O)CCc2ccccc2)cc1", "measurementTarget": "Angiotensin II receptor (AT-1) type-1 (Rattus norvegicus, UniProt P29089+P25095)", "endpointUnit": "nM", "IC50": 0.1}
{"structureString": "CCCc1nc(SC(F)F)c(C(=O)O)n1Cc1ccc(-c2ccccc2S(=O)(=O)NC(=O)Cc2cccs2)cc1", "measurementTarget": "Angiotensin II receptor (AT-1) type-1 (Rattus norvegicus, UniProt P29089+P25095)", "endpointUnit": "nM", "IC50": 0.07}
{"structureString": "CCCc1nc(SC)c(C(=O)O)n1Cc1ccc(-c2ccccc2S(=O)(=O)NC(=O)NC2CCCCC2)cc1", "measurementTarget": "Angiotensin II receptor (AT-1) type-1 (Rattus norvegicus, UniProt P29089+P25095)", "endpointUnit": "nM", "IC50": 0.5}
{"structureString": "CCCc1nc(SC)c(C(=O)O)n1Cc1ccc(-c2ccccc2S(=O)(=O)NC(=O)NCc2cccs2)cc1", "measurementTarget": "Angiotensin II receptor (AT-1) type-1 (Rattus norvegicus, UniProt P29089+P25095)", "endpointUnit": "nM", "IC50": 0.1}
{"structureString": "CCCc1nc(SC)c(C(=O)O)n1Cc1ccc(-c2ccccc2S(=O)(=O)NC(=O)NCC2CCCCC2)cc1", "measurementTarget": "Angiotensin II receptor (AT-1) type-1 (Rattus norvegicus, UniProt P29089+P25095)", "endpointUnit": "nM", "IC50": 0.1}
{"structureString": "CCCCc1nc(SC(F)F)c(C(=O)O)n1Cc1ccc(-c2ccccc2S(=O)(=O)NC(=O)CC2CCCCC2)cc1", "measurementTarget": "Angiotensin II receptor (AT-1) type-1 (Rattus norvegicus, UniProt P29089+P25095)", "endpointUnit": "nM", "IC50": 0.2}
{"structureString": "CCCCc1nc(SC)c(C(=O)O)n1Cc1ccc(-c2ccccc2S(=O)(=O)NC(=O)NCc2ccccc2)cc1", "measurementTarget": "Angiotensin II receptor (AT-1) type-1 (Rattus norvegicus, UniProt P29089+P25095)", "endpointUnit": "nM", "IC50": 0.1}

The reported measurements were obtained from ChEMBL document CHEMBL1128069.
